- Test system: E. coli
- run-description: MIC/MBC assay, twofold serial dilution
- Type: cell-based, Escherichia coli
- condition-notes: Escherichia coli, read-out: MBC
MBC strictly less than 0.09 µM = criterion met. Otherwise criterion not met.

Example results:
>>> class_label("O=C1Nc2ccc([N+](=O)[O-])cc2/C1=N/NC(=O)c1cc(Cc2ccc(O)c(C(=O)N/N=C3\\C(=O)Nc4ccc([N+](=O)[O-])cc43)c2)ccc1O")
"criterion met"
>>> class_label("O=C1Nc2ccc(Cl)cc2/C1=N/NC(=O)c1cc(Cc2ccc(O)c(C(=O)N/N=C3\\C(=O)Nc4ccc(Cl)cc43)c2)ccc1O")
"criterion met"
>>> class_label("Cc1ccc2c(c1)/C(=N/NC(=O)c1cc(Cc3ccc(O)c(C(=O)N/N=C4\\C(=O)Nc5ccc(C)cc54)c3)ccc1O)C(=O)N2")
"criterion met"

From here, focus on the item given below.
Is it true that MBC reported for COc1ccc2c(c1)/C(=N/NC(=O)c1cc(Cc3cc(Cl)c(O)c(C(=O)N/N=C4\C(=O)Nc5ccc(OC)cc54)c3)cc(Cl)c1O)C(=O)N2 is less than 0.09 µM?
criterion not met

###

- target-desc: E. coli DNA gyrase (Escherichia coli)
- run-description: E. coli DNA gyrase supercoiling inhibitory assay
- Assay type: biochemical
- condition-notes: read-out: IC50 E. Coli DNA gyrase
quantity-name: IC50
Param answer (str): number followed by unit.

What does the data say about its IC50? Entry: O=C1Nc2ccc(Cl)cc2/C1=N/NC(=O)c1cc(Cc2ccc(O)c(C(=O)N/N=C3\C(=O)Nc4ccc(Cl)cc43)c2)ccc1O
79 nM

###

- Tested on: P. aeruginosa
- run-description: MIC/MBC assay, twofold serial dilution
- Assay type: cell-based, Pseudomonas aeruginosa
- condition-notes: Pseudomonas aeruginosa, read-out: MIC
quantity-name: MIC (µM)
Just the number in µM, nothing appended.

>>> meas_value("O=C(O)c1cn(C2CC2)c2cc(N3CCNCC3)c(F)cc2c1=O [Ciprofloxacin, reference compound]")
0.06

Next compound, please.
Test system P. aeruginosa; read-out MIC; what value for O=C1Nc2ccc([N+](=O)[O-])cc2/C1=N/NC(=O)c1cc(Cc2ccc(O)c(C(=O)N/N=C3\C(=O)Nc4ccc([N+](=O)[O-])cc43)c2)ccc1O ?
0.057

###

- run-description: Cell viability assay (MTT)
- Assay type: cell-based
- condition-notes: human, MCF-10A, 4-day incubation
quantity-name: viability at 96 h, 50 µM (%)
Quick note: give the figure in %, leave out the unit.

Look up viability at 96 h, 50 µM: O=C1Nc2ccc([N+](=O)[O-])cc2/C1=N/NC(=O)c1cc(Cc2ccc(O)c(C(=O)N/N=C3\C(=O)Nc4ccc([N+](=O)[O-])cc43)c2)ccc1O [Compound 6l]
89

###

- Tested on: P. aeruginosa (ATCC BAA-2111)
- run-description: Antibacterial assay against multi-drug resistant strains (MIC/MBC)
- Format: cell-based, Pseudomonas aeruginosa
- condition-notes: Pseudomonas aeruginosa, ATCCBAA2111, read-out: MIC
Here the recorded MIC is given for each entry.

>>> meas_value("CCn1cc(C(=O)O)c(=O)c2cc(F)c(N3CCNCC3)cc21 [Norfloxacin, reference compound]")
"3.2 µM"
>>> meas_value("O=C1Nc2ccc(Cl)cc2/C1=N/NC(=O)c1cc(Cc2ccc(O)c(C(=O)N/N=C3\\C(=O)Nc4ccc(Cl)cc43)c2)ccc1O")
"3.4 µM"

Any idea what its MIC is? The molecule is Cc1ccc2c(c1)/C(=N/NC(=O)c1cc(Cc3ccc(O)c(C(=O)N/N=C4\C(=O)Nc5ccc(C)cc54)c3)ccc1O)C(=O)N2
5.6 µM

The measured values listed here are drawn from paper PMC11590026.
